assay: soluble on expression in E. coli; label from the status in PepcDB or PDB records
MEASURED PARAMETER: soluble on expression in E. coli

Some solved cases for reference:
MGSDKIHHHHHHMYVAVKGGEKAIEAAHQLQSCRRRGCTDIPELDCSQIEQQLNLAVDRVMTEGNIYDRQLAALAIKQASGDLVESIFLLRAYRSTLPRWGISQPLNTPDMRLERRVSAIFKDLPGGQLLGPTYDYTHRLLDFSLLADGEDPVAPQPDAVYEDEGTREHIPHAFQFLAQQHLVPERNISDDSNPSDITMEPPSYPGTRAARLQQLFRGDEGFLLSLGYSTQRGYGRNHPFVSEIRTGYITVSIVAEEVGFAIDIGEILLTECETVNGFVKPANDAPHFTRGYGLAFGRSERKAITVALADRALQAADYQEEVRGPAQDEEFVLSHADNVEAAGFVSHLKLPHYVDFQSELELLKRLREEYLASVPRSKA
not soluble
MSLQSKTAKLPDNDRNRPLIQTFNDAQQKVWFDDALLHEDPSQCCNPEFWQQNGKVLGSATGRGTTWFVQLQQTQGALRHYRRGGLFGKLVADSYWFTGWEKTRSYQEFMLLNHLRDAGVNVPRPIAARVQKHGLLYKADLLSEKVPNARDLVSILQESPISDELYRKIGREIRKMHDAQVNHTDLNIHNILIDDQEKVWIIDFDKCYVQIGDSWKQGNLKRLKRSFEKEVCKRGINWSLEAFAIISSYKHEEEGHHHHHH
soluble
MSIKKSPVYNVIAVPVEKVQANDYNPNVVAPPEMRLLELSIWEDGFTMPCVCYYDKEKDVYILVDGFHRYSVLKTSKRIFQRENGMLPIVVIEKDLSNRMSSTIRHNRARGTHN
soluble
MLGNLKPQAPDKILALMGEFRADPRQGKIDLGVGVYKDATGHTPIMRAVHAAEQRMLETETTKTYAGLSGEPEFQKAMGELILGDGLKSETTATLATVGGTGALRQALELARMANPDLRVFVSDPTWPNHVSIMNFMGLPVQTYRYFDAETRGVDFEGMKADLAAAKKGDMVLLHGCCHNPTGANLTLDQWAEIASILEKTGALPLIDLAYQGFGDGLEEDAAGTRLIASRIPEVLIAASCSKNFGIYRERTGCLLALCADAATRELAQGAMAFLNRQTYSFPPFHGAKIVSTVLTTPELRADWMAELEAVRSGMLRLREQLAGELRDLSGSDRFGFVAEHRGMFSRLGATPEQVKRIKEEFGIYMVGDSRINIAGLNDNTIPILARAIIEVGV
soluble
MALSEQSKDLSDPNFAAEAPNSEVHSSPGVSEGVPPSATLAEPQSPPLGPTAAPQAAPPPQAPNDEGDPKALQQAAEEGRAHQAPSAAQPGPAPPAPAQLVQKAHELMWYVLVKDQKKMIIWFPDMVKDVIGSYKKWCRSILRRTSLILARVFGLHLRLTSLHTMEFALVKALEPEELDRVALSNRMPMTGLLLMILSLIYVKGRGARESAVWNVLRILGLRPWKKHSTFGDVRKLITEEFVQMNYLKYQRVPYVEPPEYEFFWGSRASREITKMQIMEFLARVFKKDPQAWPSRYREALEEARALREANPTAHYPRSSVSEGHHHHHH
soluble

Ask: Param item = MAHHHHHHMAQCLTWQVLDQRQTGECLDAVDLEALRAVIKRIDDDRDGALLHSSERTATQVNVLLDLYGHLVLFAKASQFSPFKTSTLFGIVHRVHEASIADRLSRFHSYDLLRELVVRHSVHRPPYSTMVFSVREVQDIDTYMMSTYYRHYKMYVYCFVPREVASLRTVMLNDTAEAPPAQLPPLSAAIREDAWKEKMQEKVRTLEEAEMEEQLIVSDAVSEAQKNAATLDNSRFMAGISAQLEAIRDAVSTKSSERLDLIEEKLTAIEAKVNEAQSSGNRSRQGSRGSSKRK ; retrieve measured soluble on expression in E. coli.
Reply: soluble

Ask: Try this sequence too: HYNTEILKSIDNEWRKTQCMPREVCIDVGKEFGVATNTFFKPPCVSVYRCGGCCNSEGLQCMNTSTSYLSKTLFEITVPLSQGPKPVTISFANHTSCRCMSKLDVYRQVHSIIRR
Reply: soluble

Ask: Try this sequence too: QMFWPLQPVQLSLANVFLALANYLDAKAKLFHPVTNLAPQPMRIEAARLNAATVTALNACKATLLTRSKRGHVDGPSDRFLNIYFIAQDIHERVSSSHYRYQDLATEFERSDVLFRFKYLLETQAQACRDIAQAIQLGNEYTHTDESILALAELQNSLAYLEEQQQGHWKRLLMQLTYLFNNLATVEKQLNNINNPDAERLEEDTLADTNPHTLKAMWQRISANLHKDSMLFRH
Reply: not soluble

Ask: Try this sequence too: MHDRASQMVIFYALAKAGSFTAAAKQMGVSTSHVSKQLGALEETLNLKLVHRTTRSLILTDAGQQFFLYCETIYNAMTEASAIMDDERDEVAGILRLGLSQSFGTMHIIPAIDKLRNQYPDLQVEVRLFDHQADMLKDGLDLWVTNFEDLPEGYVAQRLADSNFVLAASPDYLIDKKVPHHPLDLVEHNCLTYQSRYRDYSNWDFSKGNESLCVKVSGNYRVDLAEAVRDATISGWGIAYLASYLLTNEFNDGKLIQLLPGWKASQKMPIYAVYPSRKHLPRKISAVIDFLREHIGQPPYWDKALMKRVKL
Reply: soluble

Ask: Try this sequence too: MSLNKTQAQVSHALKSLARKEEWKHRLQQSEELHDILLKAANRYVAGEKRSDGLAIARKLQAKGYGISLENIGENTKLLAQCREAKMEFDQLIEDVGAIAPGQTVSFDLSHIGLSYQFDTAYGHLIELAEKANEHEVTLMISMEESTKTDQILAVYRQAAELYSNIGITLQAHLFRTPDDLRKLVQLPGKIRIVKGAYQEPSHLAMERSDYLNNRYLELVDHLVSTNHPVSVATHDQKLLEEMERRQFLQSTDVEIEMLYGIQPSQLKLFKEKGYQTRVYLTYGHEWFLYLCHRLAEYPENIYTALIDIINPSLPKVDDMYEGHHHHHH
Reply: soluble

====

assay: soluble on expression in E. coli; label from the status in PepcDB or PDB records
MEASURED PARAMETER: soluble on expression in E. coli

PMGDGTQVVFTTSLIPTEAIVQLDTKAPANSKQSPIFFISPIEGFASALEPLAKRLEVPAYGLQYTEAVPSDSLESAAKFFIKQLRTVQPKGPYKLAGYSFGCLLTYVMAGILEETNEVANVIMLDGAPSYVNWYTSSFKQRYTDGTNADNDNQSYGLAYFGIVLANIDYKALVRLLIVIPTWEEKLERFAELMSNEITQPVETIKKSATLFYKKLELADGYQPTLKLKTNVTLVKPTDNSAKLDEDYRLKEVCTKPVEVHTVEGNHRTFLIEDQSLKTIQSILKRL
soluble
MTKIGINGFGRIGRNVFRAALNNSEVEVVAINDLTDAKTLAHLLKYDTVHGTLNAEVSANENSIVVNGKEIKVIAERDPAQLPWSDYGVEVVVESTGRFTKKSDAEKHLGGSVKKVIISAPASDEDITVVMGVNHEQYDAANHNVVSNASCTTNCLAPFAKVLNEKFGVKRGMMTTIHSYTNDQQILDLPHKDLRRARAAAENMIPTSTGAAKAVALVLPELKGKLNGGAVRVPTANVSLVDLVVELDKEVTVEEVNAAFKAAAEGELKGILGYSEEPLVSIDYNGCTASSTIDALSTMVMEGNMVKVLSWYDNETGYSNRVVDLAAYMTSKGL
soluble

====

test: soluble on expression in E. coli; label from the status in PepcDB or PDB records
MEASURED PARAMETER: soluble on expression in E. coli

MAKYTRDDILAQAKQLAKMIAETEEVDFFKRAEEKIHQNEKVRTLINELKSLQKQAVNLQHYGKHEALKQVEAKIDAIYEELSQIPIVSEFQQSQSDVNDLLQLVASTISNTVTDEILASTGGDVLRGETGAALRYNKHGGCH
not soluble
AIAAEMKTYSHRTMPSACTLVMCSSVESGLPGRDGRDGREGPRGEKGDPGLPGAAGQAGMPGQAGPVGPKGDNGSVGEPGPKGDTGPS
soluble
MSLTRQMNILLVEDDDLDAMMIKRAMAQVAPDAHLIRATDGVEALEIVQSNRVEDPYFILLDVNMPRMNGHEFLKELRASSEHSDTMVFMFTTSESARDIARAYQERANGYIVKPHGKAAMNSILDTLQRYWTTCEEGHHHHHH
soluble
MTQISERLLVQAHLDAKQPNPLTAEQEAEYRAAIAAELKAQNAVLVAHYYCDPVIQALAEETGGCVSDSLEMARFGKNHPAETVIVAGVRFMGETAKILTPEKRVLMPTLEATCSLDLGCPVEEFSAFCDQHPERTVVVYANTSAAVKARADWVVTSSCALEIVESLMDNGETIIWGPDQHLGRYIQKQTGADMLLWDGACIVHEEFKSRQLADMKALYPDAAILVHPESPEAVIELADAVGSTSQLIKAAQTLPNKTFIVATDRGIFYKMQQLCPDKEFVEAPTAGNGAACRSCAHCPWMAMNTLERVLDCLRNGTNEIFVDPALVPKAIKPLNRMLDFTQAARLKLSGNALEHHHHHH
not soluble
